Molecular target: Cholinesterase (Equus caballus)
Sequence (P81908 whole entry): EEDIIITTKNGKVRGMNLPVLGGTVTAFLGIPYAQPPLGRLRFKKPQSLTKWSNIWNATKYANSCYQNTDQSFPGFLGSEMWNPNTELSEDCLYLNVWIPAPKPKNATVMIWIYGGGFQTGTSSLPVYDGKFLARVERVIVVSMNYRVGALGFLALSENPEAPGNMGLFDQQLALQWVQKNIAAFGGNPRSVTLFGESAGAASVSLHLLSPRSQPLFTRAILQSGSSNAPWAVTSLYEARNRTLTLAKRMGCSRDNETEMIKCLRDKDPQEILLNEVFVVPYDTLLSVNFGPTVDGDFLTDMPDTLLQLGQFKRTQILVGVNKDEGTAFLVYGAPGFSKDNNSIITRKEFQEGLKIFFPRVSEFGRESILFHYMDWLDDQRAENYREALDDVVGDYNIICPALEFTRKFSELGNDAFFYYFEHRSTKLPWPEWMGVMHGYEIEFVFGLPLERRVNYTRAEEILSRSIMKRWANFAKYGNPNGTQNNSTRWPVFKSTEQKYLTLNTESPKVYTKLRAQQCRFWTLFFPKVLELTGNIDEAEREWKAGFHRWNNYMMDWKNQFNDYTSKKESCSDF
Experiment: Inhibition of equine serum BuChE using butyrylthiocholine iodide as substrate preincubated with enzyme for 20 mins followed by addition of substrate and measured after 20 mins by DTNB reagent based Ellman's method
Rule: IC50 below 200 nM gives YES. Equal to or above 200 nM gives NO.

Please review the entries below; each comes with its answer.
# Smiles Text, Target Under Test, Discrete Label
measured = [
    ("O=S1(=O)CCc2c(CN3CCN(Cc4ccccc4)CC3)nn(-c3ccccc3F)c2O1", "Cholinesterase (Equus caballus)", "NO"),
    ("O=S1(=O)CCc2c(CN3CCN(Cc4ccccc4)CC3)nn(-c3ccccc3Cl)c2O1", "Cholinesterase (Equus caballus)", "NO"),
    ("CN1CCN(Cc2nn(-c3ccccc3Cl)c3c2CCS(=O)(=O)O3)CC1", "Cholinesterase (Equus caballus)", "NO"),
]

Ask | # check: IC50 < 200 nM for O=S1(=O)CCc2c(CN(CCO)Cc3cccc(F)c3)nn(-c3ccccc3F)c2O1
Reply | YES

Ask | I'd appreciate it if you could check whether O=S1(=O)CCc2c(CN(CCO)Cc3ccccc3)nn(-c3ccccc3F)c2O1 has IC50 smaller than 200 nM.
Reply | YES

Ask | Hello, I'm reviewing records and need to know if IC50 of O=S1(=O)CCc2c(CN(CCO)Cc3ccc(Cl)cc3Cl)nn(-c3ccccc3F)c2O1 is below 200 nM. Could you check?
Reply | YES

Ask | Hi there! Is IC50 for COCCN(Cc1ccccc1)Cc1nn(-c2ccccc2F)c2c1CCS(=O)(=O)O2 below 200 nM, do you know?
Reply | NO

Ask | Does the reported IC50 of O=S1(=O)CCc2c(CN(CCO)Cc3ccc(Br)cc3)nn(-c3ccccc3F)c2O1 stay below 200 nM?
Reply | YES

Ask | Quick check: does CN(Cc1ccc(F)cc1)Cc1nn(-c2ccccc2F)c2c1CCS(=O)(=O)O2 have IC50 under 200 nM?
Reply | YES

* * *

Target: Cholinesterase (Equus caballus)
Assay: Inhibition of equine serum BuChE using butyrylthiocholine iodide as substrate preincubated with enzyme for 20 mins followed by addition of substrate and measured after 20 mins by DTNB reagent based Ellman's method
Listed here are molecules together with their documented pIC50.
Just so you know, pIC50 here is -log10 of the concentration in molar units; reply with that number alone.

# Smiles Text, Target Under Test, Quantity Name, Numeric Readout
records = [
    ("O=S1(=O)CCc2c(-c3ccccc3)nn(-c3ccccc3Cl)c2O1", "Cholinesterase (Equus caballus)", "pIC50", 6.77),
    ("O=S1(=O)CCc2c(CN(CCO)Cc3ccc(F)cc3)nn(-c3ccccc3F)c2O1", "Cholinesterase (Equus caballus)", "pIC50", 8.08),
    ("O=S1(=O)CCc2c(C3CC3)nn(-c3cccc(F)c3)c2O1", "Cholinesterase (Equus caballus)", "pIC50", 6.43),
    ("O=S1(=O)CCc2c(CN(CCO)Cc3cccc(Cl)c3)nn(-c3ccccc3F)c2O1", "Cholinesterase (Equus caballus)", "pIC50", 6.72),
    ("Cc1ccc(CN(CCO)Cc2nn(-c3ccccc3F)c3c2CCS(=O)(=O)O3)cc1", "Cholinesterase (Equus caballus)", "pIC50", 6.77),
    ("CN(Cc1ccc(Cl)cc1)Cc1nn(-c2ccccc2F)c2c1CCS(=O)(=O)O2", "Cholinesterase (Equus caballus)", "pIC50", 7.70),
    ("O=S1(=O)CCc2c(-c3ccc(Cl)cc3)nn(-c3ccccc3F)c2O1", "Cholinesterase (Equus caballus)", "pIC50", 6.70),
    ("Cc1nn(-c2ccccc2F)c2c1CCS(=O)(=O)O2", "Cholinesterase (Equus caballus)", "pIC50", 5.92),
]

Ask | Entry O=S1(=O)CCc2c(-c3ccc(F)cc3)nn(-c3ccccc3F)c2O1 : reported pIC50 = ?
Reply | 6.80

Ask | Could you tell me which pIC50 is on file for COc1ccc(CN(CCO)Cc2nn(-c3ccccc3F)c3c2CCS(=O)(=O)O3)cc1OC ?
Reply | 6.25
